# Test system: Danio rerio Tg(wt1b:EGFP) embryo, pronephros
# methodDescription: fraction of imaged embryos annotated as normal kidney; higher = less nephrotoxic; extreme values may be limits of the assay
# experimentalSetup: 25 µM; exposure: 24-48 hpf
Counter-ions that a name gives are not always drawn.
assayMetric: fraction of imaged embryos annotated as normal kidney
Number only, no unit.

Some solved entries appear below for comparison.
[[record]]
compound = "COC(=O)C1=C(C)NC(C)=C(C(=O)OCCN(C)Cc2ccccc2)C1c1cccc([N+](=O)[O-])c1 (centres undefined) [Nicardipine hydrochloride]"
reported = 0.909

[[record]]
compound = "Cc1ccc(-c2cc(C(F)(F)F)nn2-c2ccc(S(N)(=O)=O)cc2)cc1"
reported = 0.833


**Q:** Enter reported fraction of imaged embryos annotated as normal kidney observed with Danio rerio Tg(wt1b:EGFP) embryo, pronephros for CN(C)CCOC(=O)C(c1ccccc1)C1(O)CCCC1 (centres undefined) [Cyclopentolate hydrochloride]
**A:** 0.75

**Q:** What do you get for CCOC(=O)OC(C)OC1=C(C(=O)Nc2ccccn2)N(C)S(=O)(=O)c2ccccc21 (centres undefined) ?
**A:** 1

====

Catalogue of fraction of imaged embryos annotated as normal kidney readings, one per entry.
# Tested on: Danio rerio Tg(wt1b:EGFP) embryo, pronephros
# methodDescription: fraction of imaged embryos annotated as normal kidney; higher = less nephrotoxic; extreme values may be limits of the assay
# experimentalSetup: 25 µM; exposure: 24-48 hpf
Where a name gives a salt, the structure may show the parent alone.

Some solved entries appear below for comparison.
[[record]]
molecule = "C[C@H](CCC(=O)O)[C@H]1CC[C@H]2[C@@H]3CC[C@@H]4C[C@H](O)CC[C@]4(C)[C@H]3CC[C@]12C"
measurementtarget = "Danio rerio Tg(wt1b:EGFP) embryo, pronephros"
reported = 0.364

[[record]]
molecule = "O=C(O)CCCC[C@@H]1SC[C@@H]2NC(=O)N[C@@H]21"
measurementtarget = "Danio rerio Tg(wt1b:EGFP) embryo, pronephros"
reported = 0.917

[[record]]
molecule = "NC(=O)OCC(COC(N)=O)c1ccccc1 [Felbamate]"
measurementtarget = "Danio rerio Tg(wt1b:EGFP) embryo, pronephros"
reported = 0.833

[[record]]
molecule = "CCCOc1ccc(C(=O)OCCN(CC)CC)cc1N [Proparacaine hydrochloride]"
measurementtarget = "Danio rerio Tg(wt1b:EGFP) embryo, pronephros"
reported = 0.833

[[record]]
molecule = "O=C1NCCN1CCN1CCC(c2cn(-c3ccc(F)cc3)c3ccc(Cl)cc23)CC1"
measurementtarget = "Danio rerio Tg(wt1b:EGFP) embryo, pronephros"
reported = 0.833


**Q:** Could you tell me which fraction of imaged embryos annotated as normal kidney is on file for CCN1C(=O)NC(c2ccccc2)C1=O (centres undefined) ?
**A:** 0.917

**Q:** What do you get for O=C1[C@H](CC[C@H](O)c2ccc(F)cc2)[C@@H](c2ccc(O)cc2)N1c1ccc(F)cc1 ?
**A:** 0.75

**Q:** What do you get for N=C(N)NC(=O)Cc1c(Cl)cccc1Cl [Guanfacine hydrochloride] ?
**A:** 0.583

**Q:** What do you get for O=C(NC(Cc1cc(=O)[nH]c2ccccc12)C(=O)O)c1ccc(Cl)cc1 (centres undefined) [Rebamipide] ?
**A:** 0.917

====

# Tested on: Danio rerio Tg(wt1b:EGFP) embryo, pronephros
# methodDescription: glomerular separation, fold change vs DMSO control; higher = glomeruli further apart (abnormal)
# experimentalSetup: 25 µM; exposure: 24-48 hpf
Counter-ions that a name gives are not always drawn.
Binary call on glomerular separation: t from 0.9 upward, f beneath that.

Field: example entries. Status: answers known.
[[record]]
molecule = "CC(=O)N[C@@H](CC(C)C)C(=O)O"
assignedclass = "t"

[[record]]
molecule = "CC(C)(C)NC[C@H](O)COc1nsnc1N1CCOCC1 [Timolol maleate salt]"
assignedclass = "f"


**Q:** Can CC(C(=O)O)c1ccc(-c2ccccc2)c(F)c1 (stereo not given) be said to have glomerular separation at or above 0.9?
**A:** t

**Q:** What do you get for NC(=O)C(c1ccccc1)(c1ccccc1)[C@@H]1CCN(CCc2ccc3c(c2)CCO3)C1 [Darifenacin hydrobromide] ?
**A:** t

====

# System: Danio rerio Tg(wt1b:EGFP) embryo, pronephros
# methodDescription: glomerular width (mean of left and right), fold change vs DMSO control; higher = wider glomerulus
# experimentalSetup: 25 µM; exposure: 24-48 hpf
Where a name gives a salt, the structure may show the parent alone.
Binary call on glomerular width: 1 (yes) from 1 upward, 0 (no) beneath that.

Field: example entries. Status: answers known.
[[record]]
molecule = "Nc1cc(N2CCCCC2)nc(N)[n+]1[O-]"
assignedclass = "1 (yes)"

[[record]]
molecule = "CC(C)(C)NC[C@H](O)c1ccc(O)c(CO)c1 [Levalbuterol hydrochloride]"
assignedclass = "1 (yes)"

[[record]]
molecule = "COc1ccc2[nH]c([S+]([O-])Cc3ncc(C)c(OC)c3C)nc2c1 (stereo not drawn)"
assignedclass = "0 (no)"

[[record]]
molecule = "C[C@@]1(O)CCOC(=O)C1"
assignedclass = "1 (yes)"

[[record]]
molecule = "CC(=O)O[C@]1(C(C)=O)CC[C@H]2[C@@H]3C=C(Cl)C4=CC(=O)[C@@H]5C[C@@H]5[C@]4(C)[C@H]3CC[C@@]21C [Cyproterone acetate]"
assignedclass = "0 (no)"

[[record]]
molecule = "CCOC(=O)C1=C(COCCN)NC(C)=C(C(=O)OC)C1c1ccccc1Cl (stereo not drawn)"
assignedclass = "1 (yes)"


**Q:** Can CNCCc1ccccn1 [Betahistine mesylate] be said to have glomerular width at or above 1?
**A:** 1 (yes)

**Q:** What do you get for COc1ccccc1OCCNCC(O)COc1cccc2[nH]c3ccccc3c12 (stereo not drawn) ?
**A:** 1 (yes)

**Q:** What do you get for NS(=O)(=O)c1cc2c(cc1Cl)N=C(CSCc1ccccc1)NS2(=O)=O [Benzthiazide] ?
**A:** 0 (no)

**Q:** What do you get for CC(=O)OCC(=O)[C@@]1(O)CC[C@H]2[C@@H]3CCC4=CC(=O)CC[C@]4(C)[C@@]3(F)[C@@H](O)C[C@@]21C [Fludrocortisone acetate] ?
**A:** 1 (yes)

**Q:** What do you get for CNS(=O)(=O)Cc1ccc2[nH]cc(CCN(C)C)c2c1 [Sumatriptan succinate] ?
**A:** 1 (yes)

**Q:** What do you get for CC(C)Nc1cccnc1N1CCN(C(=O)c2cc3cc(NS(C)(=O)=O)ccc3[nH]2)CC1 ?
**A:** 1 (yes)

**Q:** What do you get for COc1ccc2cc([C@H](C)C(=O)O)ccc2c1 ?
**A:** 0 (no)

**Q:** What do you get for C#C[C@]1(O)CC[C@H]2[C@@H]3CCC4=CC(=O)CC[C@@H]4[C@H]3CC[C@@]21C ?
**A:** 0 (no)

**Q:** What do you get for CC(C)(C)NC(=O)[C@H]1CC[C@H]2[C@@H]3CC[C@H]4NC(=O)C=C[C@]4(C)[C@H]3CC[C@]12C [Finasteride] ?
**A:** 0 (no)

====

# System: Danio rerio Tg(wt1b:EGFP) embryo, pronephros
# methodDescription: pronephric angle neck segment to proximal convoluted tubule (mean of left and right), fold change vs DMSO control; higher = larger pronephric angle
# experimentalSetup: 25 µM; exposure: 24-48 hpf
Counter-ions that a name gives are not always drawn.
assayMetric: pronephric angle neck segment
Number only, no unit.

Some solved entries appear below for comparison.
[[record]]
compound = "CC(C)(C)NCC(O)COc1cccc2c1CC(O)C(O)C2 (configuration not stated) [Nadolol]"
assaymetric = "pronephric angle neck segment"
reported = 0.908

[[record]]
compound = "COc1cc2ncnc(Nc3ccc(F)c(Cl)c3)c2cc1OCCCN1CCOCC1 [Gefitinib]"
assaymetric = "pronephric angle neck segment"
reported = 1.02

[[record]]
compound = "CO[C@H]1/C=C/O[C@@]2(C)Oc3c(C)c(O)c4c(c3C2=O)C2=NC3(CCN(CC(C)C)CC3)NC2=C(NC(=O)/C(C)=C\\C=C\\[C@H](C)[C@H](O)[C@@H](C)[C@@H](O)[C@@H](C)[C@H](OC(C)=O)[C@@H]1C)C4=O [Rifabutin]"
assaymetric = "pronephric angle neck segment"
reported = 1.06

[[record]]
compound = "CC(C)c1c(C(=O)Nc2ccccc2)c(-c2ccccc2)c(-c2ccc(F)cc2)n1CC[C@@H](O)C[C@@H](O)CC(=O)O [Atorvastatin]"
assaymetric = "pronephric angle neck segment"
reported = 1.65

[[record]]
compound = "CCCC(CCC)C(=O)O [Valproic acid]"
assaymetric = "pronephric angle neck segment"
reported = 1.11

[[record]]
compound = "COc1cc2nc(N(C)CCCNC(=O)C3CCCO3)nc(N)c2cc1OC (configuration not stated) [Alfuzosin hydrochloride]"
assaymetric = "pronephric angle neck segment"
reported = 0.953


Please find the next compound below.
**Q:** Could you tell me which pronephric angle neck segment is on file for Nc1ccc(S(=O)(=O)Nc2ccnn2-c2ccccc2)cc1 [Sulfaphenazole] ?
**A:** 1.02
